Listed here: items and their measured Secretion efficiency (%).
- Test system: luciferase-expressing Saccharomyces cerevisiae
- Type: cell-based
- Test conditions: S. cerevisiae, surfactant 0.03 wt % of broth, 8 hours, Examples 2, 5-11
Quick note: give the figure in %, leave out the unit.

A selection of reference data follows.
CCCCCCCCCCCC[N+](C)(C)CCCS(=O)(=O)O.[OH-] = 61
CCCCCCCCCCCC[N+](C)(C)CC(=O)[O-] [Surfactant (A3-5), betaine lauryldimethylaminoacetate] = 56
CCCCCCCCCCCCCCCCOP(=O)([O-])OCC[N+](C)(C)C [Surfactant (A3-4), miltefosine, reference compound] = 59
CCCCCCCCCCCCNCCC(=O)O = 61

Okay, next one:
Q: Query: Secretion efficiency (%); subject: CCCCCCCCCCCC[N+](C)(C)C.[Cl-] [Surfactant (A2-1), lauryl trimethyl ammonium chloride]
A: 52
